Test system: human SMAD7 mRNA
Assay: Antisense inhibition of human SMAD7 mRNA expression in Hep3B cells by 3-10-3 cEt gapmers, 10,000 nM, electroporation (Example 2)
Type: cell-based
Settings: Hep3B cells, electroporation with 10,000 nM antisense oligonucleotide, approximately 24 hours, RTS5062, percent inhibition of SMAD7 mRNA relative to untreated control cells
Strand notation (5' to 3'): a small letter for the sugar, then the base; units joined by * are phosphorothioate-linked, units joined directly phosphodiester-linked; [ ] holds rarer units or linkages, { } end groups; capitals alone tell only the bases. k = constrained ethyl (cEt); [5mC] = 5-methylcytosine; d = 2'-deoxy (DNA)
Reported % Inhibition values are given for each entry in this list.
READOUT_KIND: % Inhibition (%)

[[record]]
substance = "799607 (k[5mC]*k[5mC]*kA*dT*dT*dT*dA*d[5mC]*dA*dA*dA*dA*d[5mC]*kT*k[5mC]*kT; antisense) [compound 799607]"
test_system = "human SMAD7 mRNA"
measured_number = 71

[[record]]
substance = "799846 (kT*k[5mC]*k[5mC]*dA*d[5mC]*dT*dA*dT*dT*d[5mC]*dT*dA*dT*kG*kA*kA; antisense) [compound 799846]"
test_system = "human SMAD7 mRNA"
measured_number = 25

[[record]]
substance = "799313 (antisense kA*kT*k[5mC]*d[5mC]*dA*dT*d[5mC]*dT*dT*dT*dA*dA*dG*k[5mC]*kA*k[5mC]) [compound 799313]"
test_system = "human SMAD7 mRNA"
measured_number = 0

[[record]]
substance = "799687 (antisense kG*kG*k[5mC]*dA*dG*d[5mC]*dA*dG*dA*d[5mC]*d[5mC]*dA*dT*k[5mC]*kT*kT) [compound 799687]"
test_system = "human SMAD7 mRNA"
measured_number = 35

[[record]]
substance = "799829 (antisense kG*kA*kG*dT*dT*dT*dG*d[5mC]*dG*dA*dG*d[5mC]*d[5mC]*kA*kA*kG) [compound 799829]"
test_system = "human SMAD7 mRNA"
measured_number = 75

[[record]]
substance = "799682 (antisense kG*kG*kT*d[5mC]*d[5mC]*dA*dG*dG*dA*d[5mC]*dT*dG*dG*kT*k[5mC]*kT) [compound 799682]"
test_system = "human SMAD7 mRNA"
measured_number = 55

[[record]]
substance = "799584 (kT*kA*kT*d[5mC]*dA*dA*dG*dA*dA*dG*dA*d[5mC]*dA*kA*kA*k[5mC]; antisense) [compound 799584]"
test_system = "human SMAD7 mRNA"
measured_number = 39

[[record]]
substance = "799548 (k[5mC]*kT*k[5mC]*d[5mC]*dT*dA*d[5mC]*dT*dG*dT*dT*dG*dG*k[5mC]*kA*kG; antisense) [compound 799548]"
test_system = "human SMAD7 mRNA"
measured_number = 39

[[record]]
substance = "799849 (kA*kT*kA*dA*dG*d[5mC]*d[5mC]*dG*dA*dT*d[5mC]*dA*d[5mC]*kA*kA*kA; antisense) [compound 799849]"
test_system = "human SMAD7 mRNA"
measured_number = 41

[[record]]
substance = "799547 (kT*k[5mC]*k[5mC]*dT*dA*d[5mC]*dT*dG*dT*dT*dG*dG*d[5mC]*kA*kG*kT; antisense) [compound 799547]"
test_system = "human SMAD7 mRNA"
measured_number = 50

[[record]]
substance = "799550 (kA*kG*k[5mC]*dT*d[5mC]*d[5mC]*dT*dA*d[5mC]*dT*dG*dT*dT*kG*kG*k[5mC]; antisense) [compound 799550]"
test_system = "human SMAD7 mRNA"
measured_number = 50

[[record]]
substance = "799309 (antisense kG*k[5mC]*kA*d[5mC]*dG*d[5mC]*dT*d[5mC]*dT*dA*dA*dA*d[5mC]*kA*kG*k[5mC]) [compound 799309]"
test_system = "human SMAD7 mRNA"
measured_number = 42

